- TARGET_OR_SYSTEM: SARS-CoV-2 Spike protein receptor-binding domain (RBD) (SARS-CoV-2, UniProt P0DTC2 319-527)
- TEST_PROTOCOL: BLI (Octet), IgG1 captured on anti-human Fc sensors, RBD in solution
ASSAY_ENDPOINT: kon (M⁻¹ s⁻¹)
Numbers only, in M⁻¹ s⁻¹.

Reported kon of AB-1 full-length IgG1 (antibody, V domains shown) VH: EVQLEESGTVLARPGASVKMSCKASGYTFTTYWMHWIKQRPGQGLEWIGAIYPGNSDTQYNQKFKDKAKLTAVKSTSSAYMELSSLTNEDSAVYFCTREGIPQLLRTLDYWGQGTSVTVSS VL: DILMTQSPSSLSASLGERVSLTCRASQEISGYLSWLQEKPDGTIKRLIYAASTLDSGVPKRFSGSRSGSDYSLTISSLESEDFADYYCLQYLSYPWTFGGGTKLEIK : 79700

Data provenance: patent US12473560
